biological target: nLuc-tagged full length PfFKBP35 (Plasmodium falciparum, UniProt Q8I4V8); construct: nanoluciferase-tagged (nLuc) full length PfFKBP35 or nLuc-tagged FKBP12; assay: NanoBRET cellular target engagement, nLuc-FKBP35
Sequence (Q8I4V8 whole entry): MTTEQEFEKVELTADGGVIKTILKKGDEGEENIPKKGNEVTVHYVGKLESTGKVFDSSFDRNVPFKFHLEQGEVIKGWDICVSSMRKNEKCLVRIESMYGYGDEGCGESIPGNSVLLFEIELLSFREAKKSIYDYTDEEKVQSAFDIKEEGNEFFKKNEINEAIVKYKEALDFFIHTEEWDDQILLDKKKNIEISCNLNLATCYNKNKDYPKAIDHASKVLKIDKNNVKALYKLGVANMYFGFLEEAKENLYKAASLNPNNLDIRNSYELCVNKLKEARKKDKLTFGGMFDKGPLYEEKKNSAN
value.type: IC50

>>> reported_value("CCC(=O)Nc1cccc([C@@H](CCc2ccc(OC)c(OC)c2)OC(=O)[C@@H]2CCCCN2C(=O)C(=O)C(C)(C)CC)c1 [1b]")
"876 nM"
>>> reported_value("C=CC(=O)NCC(C)(C)C(=O)C(=O)N1CCCC[C@H]1C(=O)O[C@H](CCc1ccc(OC)c(OC)c1)c1ccccc1 [2a]")
"1350 nM"
>>> reported_value("CCC(=O)NCC(C)(C)C(=O)C(=O)N1CCCC[C@H]1C(=O)O[C@H](CCc1ccc(OC)c(OC)c1)c1ccccc1 [2b]")
"1880 nM"
>>> reported_value("C=CC(=O)Nc1cccc([C@@H](CCc2ccc(OC)c(OC)c2)OC(=O)[C@@H]2CCCCN2C(=O)C(=O)C(C)(C)CC)c1 [1a]")
"1230 nM"
>>> reported_value("C=CC(=O)OCC(C)(C)C(=O)C(=O)N1CCCC[C@H]1C(=O)O[C@H](CCc1ccc(OC)c(OC)c1)c1ccccc1 [2c]")
"854 nM"
>>> reported_value("CCC(=O)OCC(C)(C)C(=O)C(=O)N1CCCC[C@H]1C(=O)O[C@H](CCc1ccc(OC)c(OC)c1)c1ccccc1 [2d]")
"1310 nM"
